Hey, just so you know, these numbers are from the supplement of paper PMC10219994.

B1: library; a variant is named by its letters at N, in order (parent)
chain: GAGACCGCAACTGAAAAGTTGTGGNNNNNATAGTGAGTCGCTGCCTGCAAAGACACAACT

Variants of: B1
EXPERIMENT_DESCRIPTION: ligation selection enrichment (abundance after / before one-round selection) (fold); higher = more template-directed ligation activity
MEASUREMENT_SETUP: with T7Psub CACGGAUGCUAAUACGACUCACUAUA; MgCl2 25 mM; 42 °C; 4 h; pH 8.5
Reported ligation selection enrichment values for the following variants.

The cases that follow already have their ligation selection enrichment on record.
variant_notation=TAGTG property="ligation selection enrichment" result=0.601
variant_notation=TCATC property="ligation selection enrichment" result=0.166
variant_notation=GAGAC property="ligation selection enrichment" result=0.765
variant_notation=AACTG property="ligation selection enrichment" result=0.506

IN: Please report the recorded ligation selection enrichment for GATGG .
OUT: 0.46

IN: Please report the recorded ligation selection enrichment for GAATG .
OUT: 0.478
